Tested on: SK-OV-3 ovarian
experiment_description: NCI-60 one-dose screen, 48 h (100 = growth as untreated, 0 = no growth, -100 = all killed)
assay_context: 10 µM unless noted
Experimental: Growth inhibition of the SK-OV-3 human tumor cell line is measured as a screen for anti-cancer activity. Cells are grown in 96 well plates and exposed to the test compound for 48 hours. Compounds are tested at a single concentration, which is 10^-5 M for most compounds. The reported endpoint is percent growth (GI% or GIPRCNT), where numbers from 0 - 100% represent growth inhibition, and numbers from -100% - 0 represent cell death. For example, a value of 40 represents 60% growth inhibition. […]
Compounds without any hit were thinned out: in the full panel of roughly 83,000, 20% have a hit.
readout_kind: growth (%)
Form entry: value (%) — number only.

The examples below pair each entry with its known result.
>  <structure_smiles>
COc1c(B(O)O)cc(F)cc1-c1nc2c(F)cc3[nH]ncc3c2c2c1CCCC2

>  <target>
SK-OV-3 ovarian

>  <readout_kind>
growth

>  <experimental_result>
25.1

$$$$
>  <structure_smiles>
Cc1ccc(C(=O)Nc2cc(-n3ccnc3)cc(C(F)(F)F)c2)cc1-n1cc(-c2cnc3cccnn23)nn1

>  <target>
SK-OV-3 ovarian

>  <readout_kind>
growth

>  <experimental_result>
124

$$$$

Look up growth: N#C/C(=C1/C(=O)Nc2ccccc21)c1nnc(NC(=O)c2ccc(-n3c(=O)[nH]c4ccccc4c3=O)cc2)s1
75.1

// query: O=C1Nc2cc(-c3ccc(NS(=O)(=O)c4ccc(C(F)(F)F)cc4)cc3)ccc2/C1=C/c1ccc[nH]1
57.7

// query: FC(F)(F)c1cc2c(Cl)ncnc2n1CCN1CCCCC1
97.2

// query: Clc1ccc(-c2nc3ccc(-c4nnc(SCc5ccccc5)o4)cc3[nH]2)cc1
83.1

// query: COc1ccc(C(=O)NNC(=O)CSc2nc3sc4c(c3c(=O)n2-c2ccc(Cl)cc2)CCCC4)cc1
70.4

// query: O=C(CSc1nc2ccccc2c(=O)[nH]1)Nc1ccccc1C(=O)O
90.7

// query: Cc1ccc(C(=O)C[n+]2cccc3c4ccccc4ccc32)cc1
33.9

* * *

Test system: HCT-116 colon
experiment_description: NCI-60 one-dose screen, 48 h (100 = growth as untreated, 0 = no growth, -100 = all killed)
assay_context: 10 µM unless noted
About 83,000 compounds went through this panel and 20% of them were active in at least one assay; those are over-represented in the sample as a whole.
readout_kind: growth (%)
Form entry: value (%) — number only.

The examples below pair each entry with its known result.
>  <compound>
Cc1oc(-c2ccccc2)nc1CN[C@@H]1C[C@@H]2C[C@H]([C@H]1C)C2(C)C

>  <display_unit>
%

>  <growth>
9.06

$$$$
>  <compound>
Cc1ccc2c(c1)/C(=C/C(=O)c1cc3ccccc3oc1=O)C(=O)N2

>  <display_unit>
%

>  <growth>
18.9

$$$$
>  <compound>
C=CCn1c(O)c(N=Nc2nc(-c3cc4ccccc4oc3=O)cs2)c2ccccc21

>  <display_unit>
%

>  <growth>
39.3

$$$$
>  <compound>
O=C(Cc1c(-c2ccccc2[N+](=O)[O-])n(-c2ncnc3c2c(-c2ccccc2)c(-c2ccccc2)n3Cc2ccccc2)[nH]c1=O)c1ccc(Cl)c(Cl)c1

>  <display_unit>
%

>  <growth>
13.7

$$$$
>  <compound>
CCCSc1nnc(-c2c(C)nc3sccn23)o1

>  <display_unit>
%

>  <growth>
95.7

$$$$
>  <compound>
O=C(N/N=C/c1ccsc1)c1[nH]c2ccc(Br)cc2c1-c1ccccc1

>  <display_unit>
%

>  <growth>
-71

$$$$

Look up growth: CN(C(=O)CN1C(=O)/C(=C/c2ccco2)SC1=S)C1CCS(=O)(=O)C1 (centres undefined)
96.7

// query: Cc1cc(N=C(N)c2ccccc2)ccc1OCCCCCCCCn1ccnc1
11.4

// query: CC1=C(C)C(=O)C(N2CCSCC2)=CC1=O
93

* * *

Tested on: BT-549 breast
experiment_description: NCI-60 one-dose screen, 48 h
assay_context: 10 µM unless noted
This is part of a sample that, as a whole, favours compounds with a hit. Of some 83,000 tested, about 20% had one in any assay. Activity calls are given as the source filed them. How the source made its calls: active means growth percent below 10; inactive means the rest.
Parameter call: string, one of true (1) (active), false (0) (inactive)

Completed entries (count: 8):
>  <molecule>
O=C1Nc2cc(-c3ccc(NS(=O)(=O)c4ccc(C(F)(F)F)cc4)cc3)ccc2/C1=C/c1ccc[nH]1

>  <target>
BT-549 breast

>  <assigned_class>
true (1)

$$$$
>  <molecule>
Cc1ccc(C(=O)Nc2cc(-n3cnc(F)c3)cc(C(F)(F)F)c2)cc1C#Cc1cnc2cccnn12

>  <target>
BT-549 breast

>  <assigned_class>
false (0)

$$$$
>  <molecule>
Cc1ccc(C2CC(c3ccc(NC(=O)Nc4ccccc4)cc3)=NN2c2ccc(S(N)(=O)=O)cc2)cc1 (stereo not drawn)

>  <target>
BT-549 breast

>  <assigned_class>
true (1)

$$$$
>  <molecule>
CC[C@]12C=CCN3CC[C@@]4(c5ccc(OC)cc5N(C)[C@H]4[C@@](O)(C(=O)OC)[C@@H]1OC(=O)CCC[P+](c1ccc(OC)cc1)(c1ccc(OC)cc1)c1ccc(OC)cc1)[C@@H]32

>  <target>
BT-549 breast

>  <assigned_class>
true (1)

$$$$
>  <molecule>
COc1cc(C2CC(c3ccc(Cl)cc3)=Nc3c(N)nc(N)nc3N2)ccc1Oc1nc(Nc2ccc(F)cc2)nc(N(C)C)n1 (stereo not drawn)

>  <target>
BT-549 breast

>  <assigned_class>
false (0)

$$$$
>  <molecule>
COc1sc(/C=N/NC(=O)c2[nH]c3ccc(Br)cc3c2-c2ccccc2)cc1Br

>  <target>
BT-549 breast

>  <assigned_class>
true (1)

$$$$
>  <molecule>
CC(Nc1ncnc2ccc(-c3ccc4oc(N)nc4c3)cc12)c1ccccc1 (stereo not drawn)

>  <target>
BT-549 breast

>  <assigned_class>
true (1)

$$$$
>  <molecule>
Cc1ccc(C(C)C)cc1Oc1cccc(-c2c(-c3ccc(C(F)(F)F)cc3)ncn2C2CCNCC2)n1

>  <target>
BT-549 breast

>  <assigned_class>
true (1)

$$$$

What outcome does the record of this test show for CCc1ccccc1NC(=O)N/C(N)=N/c1nc2ccccc2s1 ?
true (1)

// query: O=C(Cn1c(-c2ccccc2)nc2ccccc21)N=Nc1c(O)[nH]c2ccc(Cl)cc12
true (1)

* * *

Tested on: DU-145 prostate
experiment_description: NCI-60 one-dose screen, 48 h
assay_context: 10 µM unless noted
The panel holds about 83,000 compounds, 20% with a hit somewhere; the sample as a whole holds those more often. Activity calls are given as the source filed them. The calls were made as follows: active = growth percent below 10; inactive = the rest.
Parameter call: string, one of active, inactive

>  <compound>
COc1ccc2[nH]c(=O)c(CSc3ccccc3Nc3nccc(-c4ccc(C(F)(F)F)cc4)n3)cc2c1

>  <assigned_class>
inactive

$$$$
>  <compound>
COc1ccc(-c2cc(C(=O)N=Nc3c(O)[nH]c4ccc(Cl)cc34)c3ccccc3n2)cc1OC

>  <assigned_class>
inactive

$$$$
>  <compound>
O=C(N/N=C/c1occc1Br)c1[nH]c2ccc(Br)cc2c1-c1ccccc1

>  <assigned_class>
active

$$$$
>  <compound>
CCCn1c(NC(=O)c2cccc(C(N)=O)c2)nc2cc(CN3CCCCC3)ccc21

>  <assigned_class>
inactive

$$$$
>  <compound>
COc1cc(-c2ccc3ncnc(N4CCc5ccc(Cl)cc54)c3c2)cnc1Cl

>  <assigned_class>
inactive

$$$$

What outcome does the record of this test show for COc1cc(C2CC(c3ccc(C(F)(F)F)cc3)=Nc3c(N)nc(N)nc3N2)ccc1Oc1nc(Nc2ccc(F)cc2)nc(N(C)C)n1 (centres undefined) ?
inactive

// query: O=C(N/N=C/c1ccc(B(O)O)s1)c1[nH]c2ccc(Br)cc2c1-c1ccccc1
active

* * *

System: NCI-H226 lung
experiment_description: NCI-60 one-dose screen, 48 h (100 = growth as untreated, 0 = no growth, -100 = all killed)
assay_context: 10 µM unless noted
About 83,000 compounds went through this panel and 20% of them were active in at least one assay; those are over-represented in the sample as a whole.
Returns one of rule met or rule not met; rule met when growth is >= 10%.

>  <molecule>
CC(C)(C)OC(=O)N1C/C(=C\c2ccc(F)cc2)C(=O)/C(=C/c2ccc(F)cc2)C1

>  <assigned_class>
rule not met

$$$$
>  <molecule>
C/C(=N\Nc1ccc(S(N)(=O)=O)cc1)c1cnn(-c2cc(=O)[nH]c3ccc(Br)cc23)c1C

>  <assigned_class>
rule met

$$$$
>  <molecule>
COC(=O)CSC1=C(C)C(=O)C(OC)=C(OC)C1=O

>  <assigned_class>
rule met

$$$$

Check the entry COc1ccc2[nH]c(=O)c(CSc3ccccc3Nc3nccc(-c4ccc(C(F)(F)F)cc4)n3)cc2c1 : does growth equal or exceed 10%?
rule met

// query: CN1CCN(c2ccc3c4c(cccc24)C(=O)N(c2cccc(-c4nn(-c5ccccc5)cc4-c4nc5ccccc5s4)c2)C3=O)CC1
rule met

// query: Cn1cc(-c2cc3nc(-c4cn(C)c5ncccc45)cc(N)n3n2)c2cc(F)ccc21
rule not met

// query: Cc1ccc(NC(=O)N/N=C/c2c[nH]c3ccccc23)c(C)c1
rule met

// query: O=C(c1cc2cc(OCCCN3CCC3)ccc2[nH]1)N1C[C@@H](CCl)c2c1cc(OCc1ccccc1)c1ccccc21
rule not met

// query: CC1CCc2c(sc3nc(SCC(=O)c4cccc(Br)c4)n(-c4ccccc4)c(=O)c23)C1 (stereo not given)
rule met
